Cited source for all entries: paper PMC8151276

biological target: TACR3 (Homo sapiens, UniProt P29371); construct: purchased Promega (in-house HiBiT-GPCR construct library, NanoBRET); test: NanoBRET screen HiBiT-TACR3 in HEK293; format: binding; conditions: TACR3; tracer 1μM
Sequence (P29371 whole entry): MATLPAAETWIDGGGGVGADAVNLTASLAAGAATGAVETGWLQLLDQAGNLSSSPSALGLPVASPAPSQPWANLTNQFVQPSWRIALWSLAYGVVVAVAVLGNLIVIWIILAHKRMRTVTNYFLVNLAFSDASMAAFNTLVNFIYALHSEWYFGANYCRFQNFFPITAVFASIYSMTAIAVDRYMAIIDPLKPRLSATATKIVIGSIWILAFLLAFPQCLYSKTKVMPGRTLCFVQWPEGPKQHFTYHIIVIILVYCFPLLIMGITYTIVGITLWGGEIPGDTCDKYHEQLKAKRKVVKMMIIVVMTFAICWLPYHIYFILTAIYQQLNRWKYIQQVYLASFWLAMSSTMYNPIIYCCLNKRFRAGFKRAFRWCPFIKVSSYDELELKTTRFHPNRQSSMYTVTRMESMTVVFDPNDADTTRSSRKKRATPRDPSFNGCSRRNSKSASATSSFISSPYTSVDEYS
observable: NanoBRET Fold Response

Below, each entry is followed by its recorded NanoBRET Fold Response result.
• Cc1cc2c(s1)Nc1ccccc1N=C2N1CCN(CCCNC(=O)CCOCCOCCOCCOCCNC(=O)CCc2ccc3n2[B-](F)(F)[N+]2=C(c4ccc[nH]4)C=CC2=C3)CC1 = 0.95
• O=C(CCOCCOCCOCCOCCNC(=O)CCc1ccc2n1[B-](F)(F)[N+]1=C(c3ccc[nH]3)C=CC1=C2)NCCCN1CCN(C2=Nc3ccccc3Oc3ccc(Cl)cc32)CC1 = 1.11

According to the records, this compound COc1ccccc1N1CCN(CCCCN2C(=O)c3ccc(CNC(=O)CCOCCNC(=O)c4ccc(CNC(=O)CCc5ccc6n5[B-](F)(F)[N+]5=C(c7ccc[nH]7)C=CC5=C6)cc4)cc3C2=O)CC1 displays NanoBRET Fold Response of 0.96

----------
Quick reference: NanoBRET Fold Response of the listed items.
molecular target: MLNR (Homo sapiens); construct: purchased Promega (in-house HiBiT-GPCR construct library, NanoBRET); assay: NanoBRET screen HiBiT-MLNR in HEK293; type: binding; conditions: MLNR; tracer 1μM
Sequence (O43193 whole entry): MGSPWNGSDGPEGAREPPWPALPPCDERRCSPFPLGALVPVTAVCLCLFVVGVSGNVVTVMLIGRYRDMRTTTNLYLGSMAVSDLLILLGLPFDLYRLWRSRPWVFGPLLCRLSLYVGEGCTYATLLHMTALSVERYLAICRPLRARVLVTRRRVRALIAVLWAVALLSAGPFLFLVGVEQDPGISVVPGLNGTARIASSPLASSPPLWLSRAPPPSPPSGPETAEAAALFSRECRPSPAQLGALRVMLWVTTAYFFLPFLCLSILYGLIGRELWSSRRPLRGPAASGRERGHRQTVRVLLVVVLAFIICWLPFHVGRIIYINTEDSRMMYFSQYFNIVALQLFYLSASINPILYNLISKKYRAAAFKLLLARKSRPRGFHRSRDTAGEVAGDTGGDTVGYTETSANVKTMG
When you answer, write just the number.

Below, each entry is followed by its recorded NanoBRET Fold Response result.
• CCCn1c(=O)c2[nH]c(-c3ccc(OCC(=O)NCCNC(=O)CCOCCNC(=O)c4ccc(CNC(=O)CCc5ccc6n5[B-](F)(F)[N+]5=C(c7ccc[nH]7)C=CC5=C6)cc4)cc3)nc2n(CCC)c1=O [XAC-3-NB590] = 0.91
• Cc1cc2c(s1)Nc1ccccc1N=C2N1CCN(CCCNC(=O)CCOCCOCCOCCOCCNC(=O)CCc2ccc3n2[B-](F)(F)[N+]2=C(c4ccc[nH]4)C=CC2=C3)CC1 [Olanzapine-a-2-NB590] = 1.15
• O=C(CCc1ccc2n1[B-](F)(F)[N+]1=C(c3ccc[nH]3)C=CC1=C2)NCc1ccc(C(=O)NCCOCCC(=O)N[C@@H]2CC[C@@]3(O)[C@H]4Cc5ccc(O)c6c5[C@@]3(CCN4CC3CC3)[C@H]2O6)cc1 [Naltrexone-3-NB590] = 0.69
• N#CN=C(NCCCOc1cccc(CN2CCCCC2)c1)NCCNC(=O)CCOCCOCCOCCOCCNC(=O)CCc1ccc2n1[B-](F)(F)[N+]1=C(c3ccc[nH]3)C=CC1=C2 [Aminopotentidine-2-NB590] = 1.00

The record that follows has no NanoBRET Fold Response shown yet.
According to the records, this compound CC(C)N(CC[C@H](c1ccccc1)c1cc(CCNC(=O)c2ccc(CNC(=O)CCc3ccc4n3[B-](F)(F)[N+]3=C(c5ccc[nH]5)C=CC3=C4)cc2)ccc1O)C(C)C [Tolterodine-BZ-NB590] displays NanoBRET Fold Response of 1.05

----------
molecular target: RXFP1 (Homo sapiens, UniProt Q9HBX9); construct: purchased Promega (in-house HiBiT-GPCR construct library, NanoBRET); test: NanoBRET screen HiBiT-RXFP1 in HEK293; assay type: binding; conditions: RXFP1; tracer 1μM
Sequence (Q9HBX9 whole entry): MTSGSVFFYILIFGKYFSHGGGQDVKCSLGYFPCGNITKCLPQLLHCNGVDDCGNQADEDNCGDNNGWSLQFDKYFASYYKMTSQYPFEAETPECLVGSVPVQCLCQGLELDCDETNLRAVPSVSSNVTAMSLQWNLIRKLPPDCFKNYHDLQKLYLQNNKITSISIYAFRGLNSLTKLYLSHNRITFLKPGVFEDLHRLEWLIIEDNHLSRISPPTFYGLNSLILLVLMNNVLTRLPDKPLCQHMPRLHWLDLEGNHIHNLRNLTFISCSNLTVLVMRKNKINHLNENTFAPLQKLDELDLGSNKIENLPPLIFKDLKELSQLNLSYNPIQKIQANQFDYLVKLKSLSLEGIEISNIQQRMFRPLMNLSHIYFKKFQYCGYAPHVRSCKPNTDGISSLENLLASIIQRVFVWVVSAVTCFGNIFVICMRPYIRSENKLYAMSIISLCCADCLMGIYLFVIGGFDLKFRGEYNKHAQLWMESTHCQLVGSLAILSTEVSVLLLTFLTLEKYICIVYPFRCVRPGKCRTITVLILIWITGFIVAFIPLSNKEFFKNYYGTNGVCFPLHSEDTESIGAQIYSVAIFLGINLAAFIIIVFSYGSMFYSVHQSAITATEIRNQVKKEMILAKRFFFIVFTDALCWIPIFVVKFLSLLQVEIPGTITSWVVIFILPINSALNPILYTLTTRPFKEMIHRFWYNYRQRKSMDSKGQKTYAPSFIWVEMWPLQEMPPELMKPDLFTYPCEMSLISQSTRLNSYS
Flag rule - NanoBRET Fold Response less than 0.9 flags T; the remaining entries get F.

Solved entries:
• CC(C)N(CC[C@H](c1ccccc1)c1cc(CCNC(=O)CCOCCOCCOCCOCCNC(=O)CCc2ccc3n2[B-](F)(F)[N+]2=C(c4ccc[nH]4)C=CC2=C3)ccc1O)C(C)C = T
• N#CN=C(NCCCOc1cccc(CN2CCCCC2)c1)NCCNC(=O)CCOCCOCCOCCOCCNC(=O)CCc1ccc2n1[B-](F)(F)[N+]1=C(c3ccc[nH]3)C=CC1=C2 = F
• O=C(CCc1ccc2n1[B-](F)(F)[N+]1=C(c3ccc[nH]3)C=CC1=C2)NCCOCCOCCNC(=O)OCCOCCN1CCN(C2=Nc3ccccc3Sc3ccccc32)CC1 = F

Input O=C(CCc1ccc2n1[B-](F)(F)[N+]1=C(c3ccc[nH]3)C=CC1=C2)NCc1ccc(C(=O)NCCOCCC(=O)N[C@@H]2CC[C@@]3(O)[C@H]4Cc5ccc(O)c6c5[C@@]3(CCN4CC3CC3)[C@H]2O6)cc1 [Naltrexone-3-NB590] ; condition: NanoBRET Fold Response strictly below 0.9. Does it hold?
F
